Test system: SW48 cells
PROTOCOL DESCRIPTION: Cell cycle arrest by PI flow cytometry
Format: cell-based, human
DETAILS: SW48, 0.5 μM, 72 h

[
  {
    "SMILES REPRESENTATION": "Nc1cc(F)ccc1NC(=O)c1ccc(NC(=O)C/C=C/c2cccnc2)cn1",
    "STUDY TARGET": "SW48 cells",
    "UNIT OF MEASUREMENT": "%",
    "Percentage of Cell Cycle Distribution S": 17.5
  },
  {
    "SMILES REPRESENTATION": "Nc1cc(F)ccc1NC(=O)c1ccc(NC(=O)C/C=C/c2cccnc2)cc1",
    "STUDY TARGET": "SW48 cells",
    "UNIT OF MEASUREMENT": "%",
    "Percentage of Cell Cycle Distribution S": 16.5
  },
  {
    "SMILES REPRESENTATION": "Nc1ccccc1NC(=O)c1ccc(NC(=O)C/C=C/c2cccnc2)cn1",
    "STUDY TARGET": "SW48 cells",
    "UNIT OF MEASUREMENT": "%",
    "Percentage of Cell Cycle Distribution S": 18.6
  },
  {
    "SMILES REPRESENTATION": "Nc1ccccc1NC(=O)c1ccc(NC(=O)C/C=C/c2cccnc2)cc1",
    "STUDY TARGET": "SW48 cells",
    "UNIT OF MEASUREMENT": "%",
    "Percentage of Cell Cycle Distribution S": 10.4
  }
]

----------
STUDY TARGET: HDAC2 (Homo sapiens (Human), UniProt Q92769)
Sequence (Q92769 whole entry): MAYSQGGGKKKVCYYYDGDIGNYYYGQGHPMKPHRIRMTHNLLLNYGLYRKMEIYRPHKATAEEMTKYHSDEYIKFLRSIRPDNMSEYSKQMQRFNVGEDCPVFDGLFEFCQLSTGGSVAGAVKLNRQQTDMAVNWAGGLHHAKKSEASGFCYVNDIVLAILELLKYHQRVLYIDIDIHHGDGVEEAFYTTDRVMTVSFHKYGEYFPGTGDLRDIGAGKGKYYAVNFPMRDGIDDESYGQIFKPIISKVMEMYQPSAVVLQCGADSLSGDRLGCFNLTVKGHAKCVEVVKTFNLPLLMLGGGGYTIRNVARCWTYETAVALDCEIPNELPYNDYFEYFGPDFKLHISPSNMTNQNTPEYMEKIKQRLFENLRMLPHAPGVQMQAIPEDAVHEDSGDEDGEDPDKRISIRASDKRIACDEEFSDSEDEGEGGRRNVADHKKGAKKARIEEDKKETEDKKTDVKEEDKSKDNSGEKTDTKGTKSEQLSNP
PROTOCOL DESCRIPTION: HDACs 1, 2, and 3 enzymatic inhibition (fluorogenic kit, 1 h)
Type: biochemical
DETAILS: 37° C.
In this section, each of the molecules is paired with its reported IC50.
PROPERTY MEASURED: IC50 (nM)

[
  {
    "SMILES REPRESENTATION": "Cc1ccc(/C=C/CC(=O)Nc2ccc(C(=O)Nc3ccc(F)cc3N)nc2)cn1",
    "UNIT OF MEASUREMENT": "nM",
    "CENSORING QUALIFIER": "=",
    "NUMERIC RESULT": 550
  },
  {
    "SMILES REPRESENTATION": "Cc1ccc(/C=C/CC(=O)Nc2ccc(C(=O)Nc3ccccc3N)nc2)cn1",
    "UNIT OF MEASUREMENT": "nM",
    "CENSORING QUALIFIER": "=",
    "NUMERIC RESULT": 390
  },
  {
    "SMILES REPRESENTATION": "Cc1ccc(/C=C/CC(=O)Nc2ccc(C(=O)Nc3ccc(F)cc3N)cn2)cn1",
    "UNIT OF MEASUREMENT": "nM",
    "CENSORING QUALIFIER": "=",
    "NUMERIC RESULT": 2680
  },
  {
    "SMILES REPRESENTATION": "Cc1ccc(CCCC(=O)Nc2ccc(C(=O)Nc3ccccc3N)nc2)cn1",
    "UNIT OF MEASUREMENT": "nM",
    "CENSORING QUALIFIER": "=",
    "NUMERIC RESULT": 1420
  },
  {
    "SMILES REPRESENTATION": "Cc1ccc(/C=C/CC(=O)Nc2ccc(C(=O)Nc3ccc(F)cc3N)cc2)cn1",
    "UNIT OF MEASUREMENT": "nM",
    "CENSORING QUALIFIER": "=",
    "NUMERIC RESULT": 510
  },
  {
    "SMILES REPRESENTATION": "Nc1ccccc1NC(=O)c1ccc(NC(=O)C/C=C/c2cccnc2)cn1",
    "UNIT OF MEASUREMENT": "nM",
    "CENSORING QUALIFIER": "=",
    "NUMERIC RESULT": 360
  },
  {
    "SMILES REPRESENTATION": "Nc1cc(F)ccc1NC(=O)c1ccc(NC(=O)C/C=C/c2cccnc2)cn1",
    "UNIT OF MEASUREMENT": "nM",
    "CENSORING QUALIFIER": "=",
    "NUMERIC RESULT": 540
  },
  {
    "SMILES REPRESENTATION": "Cc1ccc(CCCC(=O)Nc2ccc(C(=O)Nc3ccc(C(F)(F)F)cc3N)nc2)cn1",
    "UNIT OF MEASUREMENT": "nM",
    "CENSORING QUALIFIER": ">",
    "NUMERIC RESULT": 20000
  },
  {
    "SMILES REPRESENTATION": "Nc1cc(C(F)(F)F)ccc1NC(=O)c1ccc(NC(=O)C/C=C/c2cccnc2)cn1",
    "UNIT OF MEASUREMENT": "nM",
    "CENSORING QUALIFIER": ">",
    "NUMERIC RESULT": 20000
  },
  {
    "SMILES REPRESENTATION": "Cc1ccc(/C=C/CC(=O)Nc2ccc(C(=O)Nc3ccc(C(F)(F)F)cc3N)nc2)cn1",
    "UNIT OF MEASUREMENT": "nM",
    "CENSORING QUALIFIER": ">",
    "NUMERIC RESULT": 20000
  },
  {
    "SMILES REPRESENTATION": "Nc1cc(C(F)(F)F)ccc1NC(=O)c1ccc(NC(=O)C/C=C/c2cccnc2)cc1",
    "UNIT OF MEASUREMENT": "nM",
    "CENSORING QUALIFIER": ">",
    "NUMERIC RESULT": 20000
  },
  {
    "SMILES REPRESENTATION": "Nc1cc(F)ccc1NC(=O)c1ccc(NC(=O)CCCc2cccnc2)cc1",
    "UNIT OF MEASUREMENT": "nM",
    "CENSORING QUALIFIER": "=",
    "NUMERIC RESULT": 3150
  },
  {
    "SMILES REPRESENTATION": "Nc1ccccc1NC(=O)c1ccc(NC(=O)C/C=C/c2cccnc2)cc1",
    "UNIT OF MEASUREMENT": "nM",
    "CENSORING QUALIFIER": "=",
    "NUMERIC RESULT": 280
  },
  {
    "SMILES REPRESENTATION": "Cc1ccc(CCCC(=O)Nc2ccc(C(=O)Nc3ccc(F)cc3N)nc2)cn1",
    "UNIT OF MEASUREMENT": "nM",
    "CENSORING QUALIFIER": "=",
    "NUMERIC RESULT": 1540
  },
  {
    "SMILES REPRESENTATION": "Nc1cc(F)ccc1NC(=O)c1ccc(NC(=O)C/C=C/c2cccnc2)cc1",
    "UNIT OF MEASUREMENT": "nM",
    "CENSORING QUALIFIER": "=",
    "NUMERIC RESULT": 680
  }
]

----------
STUDY TARGET: HDAC11 (Homo sapiens (Human), UniProt Q96DB2)
Sequence (Q96DB2 whole entry): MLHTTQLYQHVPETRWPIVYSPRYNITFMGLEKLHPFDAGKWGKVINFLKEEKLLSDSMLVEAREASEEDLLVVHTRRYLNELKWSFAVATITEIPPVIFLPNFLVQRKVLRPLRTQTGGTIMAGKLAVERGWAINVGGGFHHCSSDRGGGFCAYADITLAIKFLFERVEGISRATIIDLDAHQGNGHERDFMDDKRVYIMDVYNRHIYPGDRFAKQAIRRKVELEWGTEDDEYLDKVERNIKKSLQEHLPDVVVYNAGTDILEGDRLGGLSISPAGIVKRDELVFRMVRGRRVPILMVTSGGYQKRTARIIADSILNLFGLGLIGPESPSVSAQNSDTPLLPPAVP
pIC50: −log10 of the molar value.

[
  {
    "COMPOUND": "Nc1ccccc1NC(=O)c1ccc(CNC(=O)OCc2cccnc2)cc1 [Entinostat, reference compound]",
    "pIC50": "< 5.00"
  }
]

----------
STUDY TARGET: HDAC3 (Homo sapiens (Human))
Sequence (O15379 whole entry): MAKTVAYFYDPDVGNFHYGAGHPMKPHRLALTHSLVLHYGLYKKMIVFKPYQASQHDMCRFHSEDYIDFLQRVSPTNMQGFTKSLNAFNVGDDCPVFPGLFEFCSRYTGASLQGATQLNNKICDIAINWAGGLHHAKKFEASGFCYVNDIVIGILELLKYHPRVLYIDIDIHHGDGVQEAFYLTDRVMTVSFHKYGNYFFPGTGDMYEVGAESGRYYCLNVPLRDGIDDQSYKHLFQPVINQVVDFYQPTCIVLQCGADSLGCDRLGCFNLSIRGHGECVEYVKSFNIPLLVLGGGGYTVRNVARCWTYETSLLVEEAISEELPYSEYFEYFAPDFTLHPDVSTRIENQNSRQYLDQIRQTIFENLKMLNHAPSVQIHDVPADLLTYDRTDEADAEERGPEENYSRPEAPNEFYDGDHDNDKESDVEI
Sequence (Q9Y618 395-489 partner): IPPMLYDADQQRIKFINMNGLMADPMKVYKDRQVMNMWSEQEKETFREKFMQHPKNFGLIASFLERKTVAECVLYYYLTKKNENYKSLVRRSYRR
pIC50: −log10 of the molar value.
Binary call on pIC50: Yes from 6 upward, No beneath that.

[
  {
    "COMPOUND": "Nc1cc(F)ccc1NC(=O)c1ccc(NC(=O)C/C=C/c2cccnc2)cn1 [GNTbm-04]",
    "STUDY TARGET": "HDAC3 (Homo sapiens (Human))",
    "ANSWER LABEL": "Yes"
  },
  {
    "COMPOUND": "Cc1ccc(/C=C/CC(=O)Nc2ccc(C(=O)Nc3ccc(F)cc3N)cn2)cn1 [GNTbm-01]",
    "STUDY TARGET": "HDAC3 (Homo sapiens (Human))",
    "ANSWER LABEL": "No"
  },
  {
    "COMPOUND": "Cc1ccc(/C=C/CC(=O)Nc2ccc(C(=O)Nc3ccccc3N)nc2)cn1 [GNTbm-06]",
    "STUDY TARGET": "HDAC3 (Homo sapiens (Human))",
    "ANSWER LABEL": "Yes"
  },
  {
    "COMPOUND": "Nc1cc(C(F)(F)F)ccc1NC(=O)c1ccc(NC(=O)C/C=C/c2cccnc2)cn1 [GNTbm-11]",
    "STUDY TARGET": "HDAC3 (Homo sapiens (Human))",
    "ANSWER LABEL": "Yes"
  }
]
